The reported numbers originate from patent US20110046108A1.

# target-under-test: recombinant EphB4 (Homo sapiens)
# Construct: recombinant active EphB4 (amino acids 563-987; Swiss-Prot Acc; No. P54760)
# Sequence (P54760 563-987): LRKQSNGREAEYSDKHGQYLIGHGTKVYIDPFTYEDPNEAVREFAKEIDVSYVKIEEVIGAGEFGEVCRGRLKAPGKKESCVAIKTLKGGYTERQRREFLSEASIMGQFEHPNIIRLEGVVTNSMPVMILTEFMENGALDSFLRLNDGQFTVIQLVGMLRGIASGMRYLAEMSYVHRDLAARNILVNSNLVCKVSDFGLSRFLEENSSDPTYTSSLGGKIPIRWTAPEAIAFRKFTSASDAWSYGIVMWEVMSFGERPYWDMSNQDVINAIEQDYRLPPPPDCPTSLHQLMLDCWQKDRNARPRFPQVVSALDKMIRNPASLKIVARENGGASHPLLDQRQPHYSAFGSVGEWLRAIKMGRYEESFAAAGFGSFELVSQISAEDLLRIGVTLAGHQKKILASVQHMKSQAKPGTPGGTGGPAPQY
# test: In vitro EphB4 enzyme assay (Assay A, Alphascreen)
# condition-label: 4 μM ATP
pIC50: −log10 of the molar value.
readout-label: pIC50

• Clc1ccc2c(c1Nc1ccnc(Nc3ccc4ncsc4c3)n1)OCO2 = 6.34

---

Here the recorded IC50 is given for each entry.
# target-under-test: EphB4 (Homo sapiens)
# Construct: to generate full-length EphB4 containing a Myc-His tag at the C-terminus; expressed in transfected cells; host or cells: CHO-K1 (EphB4-CHO)
# test: In vitro EphB4 cell assay (Assay B, EphB4 phosphorylation ELISA in EphB4-CHO cells)
# Assay type: cell-based
# condition-label: mean values, Table A, read-out: Mean IC50 (μM) obtained using Assay B
readout-label: IC50 (µM)

* CS(=O)(=O)Nc1cccc(Nc2nccc(N(CC#N)c3c(Cl)ccc4c3OCO4)n2)c1 [Compound 227] | 0.19
* CN(c1ccnc(Nc2cccc(NS(C)(=O)=O)c2)n1)c1c(Cl)ccc2c1OCO2 [Compound 219] | 0.14
* CC(=O)Nc1cc(Nc2nccc(Nc3cccc4[nH]ncc34)n2)ccc1C [Compound 293] | 0.23
* COc1cc(Nc2nccc(Nc3cccc4c3OCO4)n2)cc(OC)c1 [Compound 258] | 1.08
* N#Cc1cccc(Nc2nccc(N(CCO)c3c(Cl)ccc4c3OCO4)n2)c1 [Compound 241] | 0.13

---

# target-under-test: c-Src kinase (Homo sapiens, UniProt P12931)
# Sequence (P12931 whole entry): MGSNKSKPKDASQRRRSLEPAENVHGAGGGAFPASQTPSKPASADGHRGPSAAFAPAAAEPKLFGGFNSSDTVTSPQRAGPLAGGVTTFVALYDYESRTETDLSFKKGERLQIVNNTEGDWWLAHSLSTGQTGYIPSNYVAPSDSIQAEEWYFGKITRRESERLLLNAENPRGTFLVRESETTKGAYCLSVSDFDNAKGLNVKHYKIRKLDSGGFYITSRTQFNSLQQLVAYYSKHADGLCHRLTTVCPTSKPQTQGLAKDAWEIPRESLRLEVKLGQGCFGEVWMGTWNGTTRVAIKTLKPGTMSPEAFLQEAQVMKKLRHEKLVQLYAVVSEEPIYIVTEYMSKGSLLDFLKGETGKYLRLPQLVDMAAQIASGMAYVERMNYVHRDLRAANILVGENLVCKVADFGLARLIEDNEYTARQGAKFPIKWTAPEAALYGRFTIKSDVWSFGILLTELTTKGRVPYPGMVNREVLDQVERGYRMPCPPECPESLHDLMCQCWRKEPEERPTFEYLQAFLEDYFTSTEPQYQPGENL
pIC50: −log10 of the molar value.
readout-label: pIC50

• Clc1ccc2c(c1Nc1ccnc(Nc3ccc4ncsc4c3)n1)OCO2 [Compound 59] = 6.48

---

# target-under-test: EphB4 (Homo sapiens, UniProt P54760)
# Construct: to generate full-length EphB4 containing a Myc-His tag at the C-terminus; expressed in transfected cells; host or cells: CHO-K1 (EphB4-CHO)
# test: In vitro EphB4 cell assay (Assay B, EphB4 phosphorylation ELISA in EphB4-CHO cells)
# Format: cell-based
# condition-label: ephrin-B2 stimulated EphB4 phosphorylation, read-out: IC50 in assay B
readout-label: IC50 (nM)

* Clc1ccc2c(c1Nc1ccnc(Nc3ccc4ncsc4c3)n1)OCO2 | 1250
